study target: KRAS G12D (Homo sapiens, UniProt P01116, G12D)
Sequence (P01116 1-188 isoform P01116-2 G12D): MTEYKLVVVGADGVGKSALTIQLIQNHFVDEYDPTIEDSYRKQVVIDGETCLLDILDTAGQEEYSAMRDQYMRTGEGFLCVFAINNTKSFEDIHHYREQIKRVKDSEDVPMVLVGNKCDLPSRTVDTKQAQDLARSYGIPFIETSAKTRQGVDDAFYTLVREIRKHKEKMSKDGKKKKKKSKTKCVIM
experimental details: GDP-GTP exchange assay, KRAS G12D (bodipy-GDP/GppNHp, SOS1)
Assay type: biochemical
condition summary: bodipy-loaded KRAS G12D 2.5 nM, 4 hours pre-incubation with inhibitor, SOS1 150 nM, GppNHp 500 uM; read-out: G12D_exchange (KRAS_G12D exchange assay IC50)
pIC50: −log10 of the molar value.

# molecule, pIC50
records = [
    ("C[C@H](Oc1nc2c(F)c(-c3cc(O)cc4ccc(F)cc34)c(CCC#N)cc2c2c1NC(=O)CN2C1C2CNC1C2)[C@@H]1CCCN1C (single isomer, unassigned) [Example 4a]", "5.30 to 6.00"),
    ("CNC(=O)c1ccc(-c2nc3c(F)c(-c4cc(O)cc5ccccc45)c(CCC#N)cc3c3c2NC(=O)CN3C2C3CNC2C3)cn1 (single isomer, unassigned) [Example 5b]", "5.30 to 6.00"),
    ("CN1CCC[C@H]1COc1nc2c(F)c(-c3cc(O)cc4ccccc34)c(CCC#N)cc2c2c1CCCN2C1C2CNC1C2 (single isomer, unassigned) [Example 12a]", "5.30 to 6.00"),
    ("CNC(=O)c1ccc(-c2nc3c(F)c(-c4cc(O)cc5ccccc45)c(CCC#N)cc3c3c2NC(=O)CN3C2C3CNC2C3)cn1 (single isomer, unassigned) [Example 5a]", "≥ 7.00"),
    ("CN(C)C1CN(c2nc3c(F)c(-c4cc(O)cc5ccccc45)c(CCC#N)cc3c3c2NC(=O)CN3C2C3CNC2C3)C1 (single isomer, unassigned) [Example 13b]", "6.00 to 7.00"),
    ("CC1Cc2c(OC[C@@H]3CCCN3C)nc3c(F)c(-c4cc(O)cc5ccccc45)c(CCC#N)cc3c2N(C2C3CNC2C3)C1 (single isomer, unassigned) [Example 14a]", "≥ 7.00"),
    ("C[C@@H](CN(C)C)Oc1nc2c(F)c(-c3cc(O)cc4ccccc34)c(CCC#N)cc2c2c1CCCN2C1C2CNC1C2 (single isomer, unassigned) [Example 16b]", "≥ 7.00"),
    ("Cn1cnc(-c2nc3c(F)c(-c4cc(O)cc5ccccc45)c(CCC#N)cc3c3c2NC(=O)CN3C2C3CNC2C3)c1 (single isomer, unassigned) [Example 7a]", "≥ 7.00"),
    ("N#CCCc1cc2c3c(c(Cc4ccccc4)nc2c(F)c1-c1cc(O)cc2ccccc12)NC(=O)CN3C1C2CNC1C2 (single isomer, unassigned) [Example 8b]", "5.00 to 5.30"),
]

###

We begin with a simple list: items and their reported pIC50.
study target: KRAS G12V (Homo sapiens, UniProt P01116, G12V)
Sequence (P01116 1-188 isoform P01116-2 G12V): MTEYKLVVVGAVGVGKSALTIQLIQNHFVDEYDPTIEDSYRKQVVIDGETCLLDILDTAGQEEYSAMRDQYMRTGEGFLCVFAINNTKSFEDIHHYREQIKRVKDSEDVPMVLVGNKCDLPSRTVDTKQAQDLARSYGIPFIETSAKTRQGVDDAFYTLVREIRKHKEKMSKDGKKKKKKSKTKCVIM
experimental details: GDP-GTP exchange assay, KRAS G12V (bodipy-GDP/GppNHp, SOS1)
condition summary: bodipy-loaded KRAS G12V 2.5 nM, 3 hours pre-incubation with inhibitor, SOS1 150 nM, GppNHp 500 uM; read-out: G12V_exchange (KRAS_G12V exchange assay IC50)
Description: The inhibitor potency of the exemplified compounds was determined in a fluorescence based guanine nucleotide exchange assay, which measures the exchange of bodipy-GDP (fluorescently labeled GDP) for GppNHp (Non-hydrolyzable GTP analog) to generate the active state of KRAS in the presence of SOS1 (guanine nucleotide exchange factor). Inhibitors were serially diluted in DMSO and a volume of 0.1 μL was transferred to the wells of a black low volume 384-well plate. […]
pIC50: −log10 of the molar value.
readout: pIC50

# molecule, result
measured = [
    ("C[C@H](Oc1nc2c(F)c(-c3cccc(Cl)c3Cl)c(CCC#N)cc2c2c1NC(=O)CN2C1C2CNC1C2)[C@@H]1CCCN1C (single isomer, unassigned) [Example 2c]", "6.00 to 7.00"),
    ("N#CCCc1cc2c3c(cnc2c(F)c1-c1cc(O)cc2ccccc12)N(c1ccccc1)C(=O)CN3[C@@H]1[C@@H]2CN[C@H]1C2 (relative stereo)", "6.00 to 7.00"),
    ("C[C@H](Oc1nc2c(F)c(-c3cccc(Cl)c3Cl)c(CCC#N)cc2c2c1c(=O)c(N1CCCC1=O)cn2[C@H]1[C@H]2CN[C@@H]1C2)[C@@H]1CCCN1C (single isomer, unassigned)", "≥ 7.00"),
]

###

study target: KRAS G12V (Homo sapiens, UniProt P01116, G12V)
experimental details: GDP-GTP exchange assay, KRAS G12V (bodipy-GDP/GppNHp, SOS1)
condition summary: bodipy-loaded KRAS G12V 2.5 nM, 3 hours pre-incubation with inhibitor, SOS1 150 nM, GppNHp 500 uM; read-out: G12V_exchange (KRAS_G12V exchange assay IC50)
pIC50: −log10 of the molar value.
We begin with a simple list: items and their reported pIC50.
readout: pIC50

# compound, result
measured = [
    ("C[C@H](Oc1nc2c(F)c(-c3cccc(Cl)c3Cl)c(CCC#N)cc2c2c1c(=O)c(-c1cnn(C)c1)cn2[C@H]1[C@H]2CN[C@@H]1C2)[C@@H]1CCCN1C (single isomer, unassigned) [Example 24b]", "≥ 7.00"),
    ("Cn1cnc(-c2nc3c(F)c(-c4cc(O)cc5ccccc45)c(CCC#N)cc3c3c2NC(=O)CN3C2C3CNC2C3)c1 (single isomer, unassigned) [Example 7b]", "5.30 to 6.00"),
    ("Cc1cc2c(nc(O[C@@H](C)[C@@H]3CCCN3C)c3c(=O)c(Nc4cnn(C)c4)cn([C@H]4[C@H]5CN[C@@H]4C5)c32)c(F)c1-c1cccc2c1C(C#N)CCC2 (single isomer, unassigned) [Example 26b]", "6.00 to 7.00"),
]

###

study target: KRAS G12V (Homo sapiens, UniProt P01116, G12V)
experimental details: GDP-GTP exchange assay, KRAS G12V (bodipy-GDP/GppNHp, SOS1)
condition summary: bodipy-loaded KRAS G12V 2.5 nM, 3 hours pre-incubation with inhibitor, SOS1 150 nM, GppNHp 500 uM; read-out: G12V_exchange (KRAS_G12V exchange assay IC50)

# compound, study target, IC50
records = [
    ("C[C@H](Oc1nc2c(F)c(-c3cc(O)cc4ccc(F)cc34)c(CCC#N)cc2c2c1NC(=O)CN2C1C2CNC1C2)[C@@H]1CCCN1C (single isomer, unassigned) [Example 4c]", "KRAS G12V (Homo sapiens, UniProt P01116, G12V)", "≤ 100 nM"),
    ("CC1Cc2c(OC[C@@H]3CCCN3C)nc3c(F)c(-c4cc(O)cc5ccccc45)c(CCC#N)cc3c2N(C2C3CNC2C3)C1 (single isomer, unassigned) [Example 14d]", "KRAS G12V (Homo sapiens, UniProt P01116, G12V)", "1000 to 5000 nM"),
    ("N#CCCc1cc2c3c(cnc2c(F)c1-c1cc(O)cc2ccccc12)NC(=O)CN3[C@@H]1[C@@H]2CN[C@H]1C2 (racemic) [Example 20a]", "KRAS G12V (Homo sapiens, UniProt P01116, G12V)", "≤ 100 nM"),
]

###

We begin with a simple list: items and their reported IC50.
study target: KRAS G12D (Homo sapiens, UniProt P01116, G12D)
experimental details: KRAS_G12D pERK assay (cellular pERK HTRF assay)
Format: cell-based
Design: host or cells: A427 or HPAF-II
condition summary: KRAS G12D cells (A427, HPAF-II named in method), 2 hours incubation, Phospho-ERK 1/2 HTRF; read-out: G12D_PERK (KRAS_G12D pERK assay IC50)

# compound, IC50
rows = [
    ("C[C@H](Oc1nc2c(F)c(-c3cc(O)cc4ccc(F)cc34)c(CCC#N)cc2c2c1NC(=O)CN2C1C2CNC1C2)[C@@H]1CCCN1C (single isomer, unassigned) [Example 4d]", "1 to 5 µM"),
    ("Cc1cc2c(nc(O[C@@H](C)[C@@H]3CCCN3C)c3c(=O)c(Nc4cnn(C)c4)cn([C@H]4[C@H]5CN[C@@H]4C5)c32)c(F)c1-c1cccc2c1C(C#N)CCC2 (single isomer, unassigned) [Example 26b]", "5 to 10 µM"),
    ("N#CCCc1cc2c3c(c(OC[C@@]45CCCN4C[C@H](F)C5)nc2c(F)c1-c1cc(O)cc2ccccc12)NC(=O)CN3C1C2CNC1C2 (single isomer, unassigned) [Example 10a]", "1 to 5 µM"),
]

###

study target: KRAS G12D (Homo sapiens, UniProt P01116, G12D)
experimental details: KRAS_G12D pERK assay (cellular pERK HTRF assay)
Type: cell-based
Parameters: host or cells: A427 or HPAF-II
condition summary: KRAS G12D cells (A427, HPAF-II named in method), 2 hours incubation, Phospho-ERK 1/2 HTRF; read-out: G12D_PERK (KRAS_G12D pERK assay IC50)
pIC50: −log10 of the molar value.
We begin with a simple list: items and their reported pIC50.

# molecule, pIC50
data = [
    ("Cc1cc2c(nc(O[C@@H](C)[C@@H]3CCCN3C)c3c(=O)ccn([C@H]4[C@H]5CN[C@@H]4C5)c32)c(F)c1-c1cccc2c1C(C#N)CCC2 (stereo partly drawn) [Example 23]", "≥ 7.00"),
    ("N#CCCc1cc2c3c(cnc2c(F)c1-c1cc(O)cc2ccccc12)NC(=O)CN3[C@@H]1[C@@H]2CN[C@H]1C2 (racemic) [Example 20a]", "5.00 to 5.30"),
    ("C[C@@H](CN(C)C)Oc1nc2c(F)c(-c3cc(O)cc4ccccc34)c(CCC#N)cc2c2c1NC(=O)CN2C1C2CNC1C2 (single isomer, unassigned) [Example 11c]", "6.00 to 7.00"),
]
